# TEST SYSTEM: Rap guanine nucleotide exchange factor 4 (Homo sapiens)
# EXPERIMENT DESCRIPTION: qHTS for Agonist of cAMP-regulated guanine nucleotide exchange factor 4 (EPAC2): primary screen; further: nearly all actives have a fitted effect of over 50% in size
# STUDY CONDITIONS: biochemical qHTS; EPAC2 activation; series mostly up to 154 µM
Hit rate of the full screen: of about 360,000 compounds, about 290 (0.081%) were called active. The call rests on the fitted dose curve; in most records, active means well fitted activation curve with a large enough effect; inconclusive means small, poorly fitted or top-dose-only effect; inactive means no such curve, though single readings can be large or run the other way. This is one part of a sample in which actives are shown more often than they occur.
Labels: label 1 = active, label 0 = inactive

{"COMPOUND": "Cc1cc(C)cc(N(CC(=O)NCC2CCCO2)S(=O)(=O)c2c(C)noc2C)c1 (stereo not given)", "ASSIGNED CLASS": "label 0"}
{"COMPOUND": "N#CCCn1cnc2ccccc21", "ASSIGNED CLASS": "label 0"}
{"COMPOUND": "Cc1cc2nc3c(=O)n(Cc4ccccc4)c(=O)[nH]c3nc2cc1N", "ASSIGNED CLASS": "label 1"}
{"COMPOUND": "CC(=O)[C@@]12O[C@@H]1C[C@H]1[C@@H]3CC[C@H]4C[C@@H](O)CC[C@]4(C)[C@H]3CC[C@@]12C", "ASSIGNED CLASS": "label 0"}
{"COMPOUND": "Cn1c(=O)[nH]c(=O)c2c1[nH]c(=S)n2Cc1ccccc1", "ASSIGNED CLASS": "label 0"}

----------
# TEST SYSTEM: Rap guanine nucleotide exchange factor 4 (Homo sapiens) (UniProt Q8WZA2)
# Sequence (Q8WZA2 whole entry, looked up): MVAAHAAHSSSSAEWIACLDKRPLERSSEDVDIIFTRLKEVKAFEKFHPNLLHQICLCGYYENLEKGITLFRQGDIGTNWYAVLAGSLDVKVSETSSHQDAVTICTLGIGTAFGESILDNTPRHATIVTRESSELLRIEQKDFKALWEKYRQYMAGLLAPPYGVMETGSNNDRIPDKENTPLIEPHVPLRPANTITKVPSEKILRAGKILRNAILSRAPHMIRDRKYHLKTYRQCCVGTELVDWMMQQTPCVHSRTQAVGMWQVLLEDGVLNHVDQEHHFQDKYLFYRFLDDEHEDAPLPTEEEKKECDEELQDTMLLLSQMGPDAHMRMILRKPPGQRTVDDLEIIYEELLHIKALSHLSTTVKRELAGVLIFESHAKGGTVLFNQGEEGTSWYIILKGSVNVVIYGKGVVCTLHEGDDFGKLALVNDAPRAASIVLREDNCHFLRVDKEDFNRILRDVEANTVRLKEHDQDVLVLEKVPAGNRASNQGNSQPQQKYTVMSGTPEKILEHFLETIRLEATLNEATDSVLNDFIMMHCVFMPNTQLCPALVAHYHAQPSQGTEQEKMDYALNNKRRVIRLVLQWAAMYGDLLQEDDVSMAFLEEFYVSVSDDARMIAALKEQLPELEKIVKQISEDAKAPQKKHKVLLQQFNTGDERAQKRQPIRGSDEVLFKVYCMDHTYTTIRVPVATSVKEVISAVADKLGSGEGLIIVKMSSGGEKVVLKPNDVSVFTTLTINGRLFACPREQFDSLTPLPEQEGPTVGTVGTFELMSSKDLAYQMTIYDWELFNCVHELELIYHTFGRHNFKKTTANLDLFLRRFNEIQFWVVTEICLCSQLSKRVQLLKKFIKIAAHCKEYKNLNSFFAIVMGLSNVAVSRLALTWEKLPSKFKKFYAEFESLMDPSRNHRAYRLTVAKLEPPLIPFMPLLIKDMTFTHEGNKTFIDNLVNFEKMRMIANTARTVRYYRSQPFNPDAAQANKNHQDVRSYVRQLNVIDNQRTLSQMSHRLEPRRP
# EXPERIMENT DESCRIPTION: qHTS for Agonist of cAMP-regulated guanine nucleotide exchange factor 4 (EPAC2): primary screen; further: nearly all actives have a fitted effect of over 50% in size
# STUDY CONDITIONS: biochemical qHTS; EPAC2 activation; series mostly up to 154 µM
# Description: In multi-cellular eukaryotic organisms, the effects of cAMP are transduced by two ubiquitously-expressed intracellular cAMP receptors, the classic protein kinase A/cAMP-dependent protein kinase (PKA/cAPK) and the more recently discovered exchange protein directly activated by cAMP/cAMP-regulated guanine nucleotide exchange factor (EPAC/cAMP-GEF). […]
Out of some 360,000 compounds screened, about 290 (0.081%) were called active. Calls come from the whole dose curve; as a rule, active = well fitted activation curve with a large enough effect; inconclusive = small, poorly fitted or top-dose-only effect; inactive = no such curve, though single readings can be large or run the other way. This excerpt belongs to a sample that is enriched for actives.
Outcomes: active, inactive

{"COMPOUND": "COc1cccc(N=c2oc3c(C)ncc(CO)c3cc2C(N)=O)c1", "ASSIGNED CLASS": "inactive"}
{"COMPOUND": "Cn1ccs/c1=N\\S(=O)(=O)c1ccc(C(C)(C)C)cc1", "ASSIGNED CLASS": "inactive"}
{"COMPOUND": "CCCN(CC(=O)Nc1ccc(OC)c(OC)c1)CC(=O)Nc1ccc(F)c(F)c1F", "ASSIGNED CLASS": "inactive"}
{"COMPOUND": "COC(=O)[C@]12CCCCC=C1N(Cc1ccco1)C(=O)[C@H](CC(=O)NCCCCc1ccccc1)C2", "ASSIGNED CLASS": "inactive"}
{"COMPOUND": "CC(C)N1C(=S)SC(C)(C)C1n1oc(=O)n(-c2ccc(Cl)c(Cl)c2)c1=O (stereo not drawn)", "ASSIGNED CLASS": "inactive"}
{"COMPOUND": "CC1Cc2ccccc2N1S(=O)(=O)c1c(N)n(C)c(=O)n(C)c1=O (stereo not drawn)", "ASSIGNED CLASS": "inactive"}
{"COMPOUND": "O=C(Nc1ccc2c(c1)C(=O)OC2)Nc1cccc2ccccc12", "ASSIGNED CLASS": "inactive"}
{"COMPOUND": "Cc1nc(N)sc1-c1ccccc1", "ASSIGNED CLASS": "inactive"}
{"COMPOUND": "Cc1ccc(N=C2SCCCN2C(=O)c2cccc(N3C(=O)CCC3=O)c2)cc1Cl", "ASSIGNED CLASS": "inactive"}
{"COMPOUND": "CCOC(=O)NC(C(F)(F)F)(C(F)(F)F)P(=O)(c1ccccc1)c1ccccc1", "ASSIGNED CLASS": "inactive"}
{"COMPOUND": "CN(CC(=O)NCc1ccncc1)S(=O)(=O)c1ccc(Br)cc1", "ASSIGNED CLASS": "inactive"}
{"COMPOUND": "O=C(COc1ccc(S(=O)(=O)N2CCOCC2)cc1Cl)N1CCOCC1", "ASSIGNED CLASS": "inactive"}
{"COMPOUND": "O=C1/C(=C/c2coc3ccc(O)cc3c2=O)SC(=S)N1c1ccccc1", "ASSIGNED CLASS": "inactive"}
{"COMPOUND": "Cc1ccc(NC(=S)N2CCCC(c3ccccc3)=N2)cc1", "ASSIGNED CLASS": "inactive"}
{"COMPOUND": "COCCNC(=O)C1C(=O)Nc2ccccc2C(=O)N1c1ccc2c(c1)OCCO2 (stereo not drawn)", "ASSIGNED CLASS": "inactive"}
{"COMPOUND": "COCCN1CCN(C(=O)c2cc(COc3ccc(F)cc3Cl)on2)CC1", "ASSIGNED CLASS": "inactive"}
{"COMPOUND": "Cc1sc2ncn(CC(=O)NCCCC(=O)N3CCN(c4ccccc4F)CC3)c(=O)c2c1C", "ASSIGNED CLASS": "inactive"}
{"COMPOUND": "CN(CCc1ccccn1)C(=O)c1ccc(OC2CCN(CCc3ccccc3)CC2)cc1", "ASSIGNED CLASS": "inactive"}
{"COMPOUND": "CC(C)(C)NC(=O)Cn1c(SCC(=O)Nc2nccs2)nc2ccccc21", "ASSIGNED CLASS": "inactive"}
{"COMPOUND": "CC(C(=O)NC1CCCC1)N(c1ccc(Oc2ccccc2)cc1)S(C)(=O)=O (stereo not drawn)", "ASSIGNED CLASS": "inactive"}
{"COMPOUND": "Cn1c(=O)c2c(nc(N3CCCCCC3)n2CC(O)COc2ccc(Cl)cc2)n(C)c1=O (stereo not drawn)", "ASSIGNED CLASS": "inactive"}
{"COMPOUND": "CCN(CC)CCCC(C)n1c2nc(=O)[nH]c(=O)c-2nc2cc(Cl)ccc21 (stereo not drawn)", "ASSIGNED CLASS": "active"}
{"COMPOUND": "O=C(COC(=O)c1c(Cl)cccc1Cl)Nc1cccc(S(=O)(=O)NC2=NCCCCC2)c1", "ASSIGNED CLASS": "inactive"}
{"COMPOUND": "COc1ccc(S(=O)(=O)NCC(c2ccco2)N2CCOCC2)cc1 (stereo not drawn)", "ASSIGNED CLASS": "inactive"}
{"COMPOUND": "O=C(c1ccccc1)C(Cn1cncn1)C(Sc1ccccc1)c1ccccc1 (stereo not drawn)", "ASSIGNED CLASS": "inactive"}
{"COMPOUND": "O=C(Cn1nnc2ccccc2c1=O)NCc1ccc(Cl)cc1", "ASSIGNED CLASS": "inactive"}
{"COMPOUND": "Cc1ccc2c(CC(=O)NCc3cccs3)coc2c1", "ASSIGNED CLASS": "inactive"}
{"COMPOUND": "Cc1ccc(CNC(=O)C2CCN(S(=O)(=O)c3ccc4nc5c(c(C(=O)O)c4c3)CC(C)CC5)CC2)cc1 (stereo not drawn)", "ASSIGNED CLASS": "inactive"}
{"COMPOUND": "CN(C)NC(=O)c1csnc1-c1c(Cl)cccc1Cl", "ASSIGNED CLASS": "inactive"}
{"COMPOUND": "O=C1CCc2cc(S(=O)(=O)N3CCC(C(=O)NCc4ccccc4Cl)CC3)ccc2N1", "ASSIGNED CLASS": "inactive"}
{"COMPOUND": "Cc1ccc(-c2nn(-c3ccccc3)cc2/C=C2\\SC(=S)N(CCCCCC(=O)O)C2=O)o1", "ASSIGNED CLASS": "active"}
{"COMPOUND": "CSc1cc(C)[nH]c(=O)n1", "ASSIGNED CLASS": "inactive"}
{"COMPOUND": "COCc1cc(C)nc2sc(C(=O)NC3CCCCC3)c(N)c12", "ASSIGNED CLASS": "inactive"}
{"COMPOUND": "COc1ccc(NC(=O)CCCOc2ccc(C(C)=O)cc2)cc1S(=O)(=O)N1CCCCC1", "ASSIGNED CLASS": "inactive"}
{"COMPOUND": "COc1ccc(-c2onc3ccc(C(C)=O)cc23)cc1", "ASSIGNED CLASS": "active"}
{"COMPOUND": "COc1cc(C)c(Cl)cc1S(=O)(=O)n1ccnc1", "ASSIGNED CLASS": "inactive"}
{"COMPOUND": "Nc1nnc(SCC(=O)OCc2ccc(Cl)c(Cl)c2)s1", "ASSIGNED CLASS": "inactive"}
{"COMPOUND": "COc1cc(-c2nnn(CC(=O)NCc3ccccc3)n2)cc(OC)c1OC", "ASSIGNED CLASS": "inactive"}
{"COMPOUND": "COCc1cc(C(C)=O)ccc1OC", "ASSIGNED CLASS": "inactive"}
{"COMPOUND": "C[C@@H](C(=O)N1CCNCC1)n1cc(CCC(=O)O)nn1", "ASSIGNED CLASS": "inactive"}
{"COMPOUND": "CCN(Cc1ccccc1)S(=O)(=O)c1cc(C(=O)O)ccc1OC", "ASSIGNED CLASS": "inactive"}
{"COMPOUND": "COc1ccc(N2C(=O)NC(NS(=O)(=O)c3ccc(Cl)cc3)(C(F)(F)F)C2=O)cc1 (stereo not drawn)", "ASSIGNED CLASS": "inactive"}
{"COMPOUND": "Cc1ccc(S(=O)(=O)N2[C@@H](Cc3ccccc3)CO[C@H]2CC(=O)OCc2ccccc2)cc1", "ASSIGNED CLASS": "inactive"}
